pIC50 reference
experimental.system: Collagenase 3 (Homo sapiens, UniProt P45452)
procedure.details: Inhibition of human recombinant MMP13 using Cy3-PLGLK(Cy5Q)AR-NH2 as substrate after 40 mins by spectrofluorimetry
Keep it numeric: pIC50 is minus log10 of the concentration in mol/L.

- COc1cccc(CNC(=O)c2nc3ccc(OC(F)(F)F)cc3c(=O)[nH]2)c1: 7.57

Qu. Consider the molecule COc1cccc(CNC(=O)c2nc3ccc(F)cc3c(=O)[nH]2)c1 and give its measured pIC50.
Ans. 7.96

Qu. Okay, and COc1cccc(CNC(=O)c2nc3cccc(CCCc4ccccc4)c3c(=O)[nH]2)c1 ?
Ans. 8.54
